biological target: wild-type EGFR enzyme (Homo sapiens, UniProt P00533); assay: Enzymologic experiment of wild-type (WT) EGFR (TR-FRET); format: biochemical; details: ATP 0.1 to 5 uM
Sequence (P00533 25-1210): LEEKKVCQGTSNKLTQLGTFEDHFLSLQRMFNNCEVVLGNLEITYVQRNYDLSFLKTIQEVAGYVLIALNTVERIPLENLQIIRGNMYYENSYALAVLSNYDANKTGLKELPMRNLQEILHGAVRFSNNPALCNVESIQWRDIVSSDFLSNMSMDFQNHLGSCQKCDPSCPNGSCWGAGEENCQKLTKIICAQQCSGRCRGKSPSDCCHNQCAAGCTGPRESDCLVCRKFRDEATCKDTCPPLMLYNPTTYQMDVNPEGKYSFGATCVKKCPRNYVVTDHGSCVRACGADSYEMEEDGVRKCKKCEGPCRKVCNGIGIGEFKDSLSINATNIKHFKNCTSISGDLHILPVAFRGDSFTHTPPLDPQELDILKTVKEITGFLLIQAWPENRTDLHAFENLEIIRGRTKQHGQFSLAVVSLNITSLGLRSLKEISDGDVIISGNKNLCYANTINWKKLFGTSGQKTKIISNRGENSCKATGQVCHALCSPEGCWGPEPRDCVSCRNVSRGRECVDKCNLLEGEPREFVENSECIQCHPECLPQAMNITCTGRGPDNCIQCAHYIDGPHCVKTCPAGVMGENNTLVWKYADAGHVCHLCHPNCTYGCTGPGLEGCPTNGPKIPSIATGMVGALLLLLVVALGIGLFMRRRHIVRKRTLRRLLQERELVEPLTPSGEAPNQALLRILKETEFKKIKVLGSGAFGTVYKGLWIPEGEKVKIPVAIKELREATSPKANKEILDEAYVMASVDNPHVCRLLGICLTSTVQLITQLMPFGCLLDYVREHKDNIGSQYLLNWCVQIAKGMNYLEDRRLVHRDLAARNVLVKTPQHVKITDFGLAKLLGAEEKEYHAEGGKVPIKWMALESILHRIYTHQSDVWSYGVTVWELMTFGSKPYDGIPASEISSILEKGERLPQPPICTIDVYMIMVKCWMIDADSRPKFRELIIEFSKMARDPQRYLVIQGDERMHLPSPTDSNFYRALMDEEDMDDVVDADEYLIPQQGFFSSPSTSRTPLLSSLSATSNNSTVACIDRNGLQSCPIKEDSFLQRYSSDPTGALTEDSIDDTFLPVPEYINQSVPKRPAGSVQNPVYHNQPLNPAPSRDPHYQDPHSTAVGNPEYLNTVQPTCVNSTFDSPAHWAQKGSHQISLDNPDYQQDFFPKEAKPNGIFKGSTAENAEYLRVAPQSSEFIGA
reported_metric: IC50 (nM)

- compound_structure_string: "C=CC(=O)Nc1cc(Nc2nccc(-c3cn(C)c4c(C5CC5)cccc34)n2)c(OC)cc1N(C)CCN(C)C"
  IC50 / nM: 14.7

[a] C=CC(=O)Nc1cc(Nc2ncc(C(F)(F)F)c(-n3nc(C)c4cc(C#N)ccc43)n2)c(OC)cc1N(C)CCN(C)C
[b] C=CCn1cc(-c2ccnc(Nc3cc(NC(=O)C=C)c(N(C)CCNC)cc3OC)n2)c2ccccc21
[c] C=CC(=O)Nc1cc(Nc2nccc(-c3cn(C)c4cc(P(C)(C)=O)ccc34)n2)c(OC(F)F)cc1N(C)CCN(C)C
[d] C=CC(=O)Nc1cc(Nc2nccc(-n3ncc4ccc(OC)cc43)n2)c(OC)cc1N(C)CCN(C)C
Please list these in order of increasing IC50. Thank you! Sort and list the labels as requested.
d, b, c, a

[1] C=CC(=O)Nc1cc(Nc2nccc(-c3cn(S(=O)(=O)N(C)C)c4ccccc34)n2)c(OC)cc1N(C)CCN(CC)CC
[2] C=CC(=O)Nc1cc(Nc2nccc(-c3cn(C)c4c(F)cc(F)cc34)n2)c(OC)cc1N(C)CCN(C)C
Which numeric IC50 is bigger, that of 1 or that of 2 ? // return label of chosen record
2
(2: 34.6 nM, 1: 1.61 nM)

====

assay: in vivo; settings: beagle, dog, po, 2 mg/kg
reported_metric: half-life (min)
Give just the numeric value; min need not be written.

- compound: "C=CC(=O)Nc1cc(Nc2nccc(-c3cn(C4CC4)c4ccccc34)n2)c(OC)cc1N(C)CCN(C)C"
  half-life / min: 420

# next compound below
The compound identified as C=CC(=O)Nc1cc(Nc2nccc(-c3cn(C)c4ccccc34)n2)c(OC)cc1N(C)CCN(C)C [AZD-9291, reference compound] registered its half-life at 324

====

test system: A431 cells; experiment: Inhibition of A431 cell proliferation (CellTiter-Glo); assay type: cell-based; settings: Homo sapiens, A-431, 72 h, read-out: EGFR IC50 (nM) A431
reported_metric: IC50 (nM)

Look over these answered cases.
- compound_structure_string: "C=CC(=O)Nc1cc(Nc2ncc(C(F)(F)F)c(-c3cn(S(=O)(=O)N(C)C)c4cc(OC)ccc34)n2)c(OC)cc1N(C)CCN(C)C"
  readout_unit: "nM"
  IC50: 377
- compound_structure_string: "C=CC(=O)Nc1cc(Nc2nccc(-c3cn(C)c4ccc(OC)cc34)n2)c(OC)cc1N(C)CCN(C)C"
  readout_unit: "nM"
  IC50: 453
- compound_structure_string: "C=CC(=O)Nc1cc(Nc2ncc(Cl)c(-c3cn(C4COC4)c4ccccc34)n2)c(OC)cc1N(C)CCN(C)C"
  readout_unit: "nM"
  IC50: 97
- compound_structure_string: "C=CC(=O)Nc1cc(Nc2ncc(Cl)c(-n3ncc4cc(C#N)ccc43)n2)c(OC)cc1N(C)CCN(C)C"
  readout_unit: "nM"
  IC50: 394
- compound_structure_string: "C=CC(=O)Nc1cc(Nc2nccc(-c3cn(S(=O)(=O)N(C)C)c4ccccc34)n2)c(OC)cc1N(C)CCN1CCCC1"
  readout_unit: "nM"
  IC50: 119

[1] C=CC(=O)Nc1cc(Nc2nccc(-c3c[nH]c4cc(OC)ccc34)n2)c(OC)cc1N(C)CCN(C)C
[2] C=CC(=O)Nc1cc(Nc2nccc(-n3ncc4cc(OCCOC)ccc43)n2)c(OC)cc1N(C)CCN(C)C
Which numeric IC50 is bigger, that of 1 or that of 2 ? Give the label of your selection.
2
(2: 348 nM, 1: 141 nM)

====

target: exon 20 T790M mutant-type EGFR enzyme (Homo sapiens, UniProt P00533, T790M); experiment: Enzymologic experiment of T790M mutant-type EGFR (TR-FRET); type: biochemical; conditions: T790M EGFR enzyme, TR-FRET, ATP 1 to 10 uM
Sequence (P00533 25-1210 T790M): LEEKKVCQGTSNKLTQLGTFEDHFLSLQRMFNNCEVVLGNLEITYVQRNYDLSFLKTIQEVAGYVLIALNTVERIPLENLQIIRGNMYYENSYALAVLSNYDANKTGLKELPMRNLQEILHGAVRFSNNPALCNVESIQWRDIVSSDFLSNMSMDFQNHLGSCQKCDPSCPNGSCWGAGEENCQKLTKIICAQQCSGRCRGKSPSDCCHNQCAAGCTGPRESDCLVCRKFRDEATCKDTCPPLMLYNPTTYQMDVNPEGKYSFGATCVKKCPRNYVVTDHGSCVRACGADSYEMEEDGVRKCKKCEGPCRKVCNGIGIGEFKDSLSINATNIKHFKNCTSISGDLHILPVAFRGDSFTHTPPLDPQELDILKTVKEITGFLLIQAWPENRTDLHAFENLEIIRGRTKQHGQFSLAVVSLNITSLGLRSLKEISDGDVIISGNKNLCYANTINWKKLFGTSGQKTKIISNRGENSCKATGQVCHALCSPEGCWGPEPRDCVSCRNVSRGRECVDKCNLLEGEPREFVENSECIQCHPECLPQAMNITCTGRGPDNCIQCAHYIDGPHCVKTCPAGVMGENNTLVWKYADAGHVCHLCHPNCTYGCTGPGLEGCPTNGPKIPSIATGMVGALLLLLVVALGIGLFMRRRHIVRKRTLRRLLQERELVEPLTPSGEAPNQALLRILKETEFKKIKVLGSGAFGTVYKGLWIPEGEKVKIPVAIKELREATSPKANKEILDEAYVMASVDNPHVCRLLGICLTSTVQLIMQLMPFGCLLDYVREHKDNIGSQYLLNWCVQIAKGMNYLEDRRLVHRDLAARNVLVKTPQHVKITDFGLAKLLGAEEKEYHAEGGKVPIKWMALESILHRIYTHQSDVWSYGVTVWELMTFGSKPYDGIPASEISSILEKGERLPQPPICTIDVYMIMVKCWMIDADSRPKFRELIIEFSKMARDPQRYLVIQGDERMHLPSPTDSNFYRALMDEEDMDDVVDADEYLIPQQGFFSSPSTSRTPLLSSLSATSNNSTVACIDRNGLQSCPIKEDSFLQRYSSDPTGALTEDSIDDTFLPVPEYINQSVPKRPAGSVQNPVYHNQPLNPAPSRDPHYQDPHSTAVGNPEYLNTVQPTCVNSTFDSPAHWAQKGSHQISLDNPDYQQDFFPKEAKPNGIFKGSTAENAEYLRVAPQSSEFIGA
reported_metric: IC50 (nM)

Look over these answered cases.
- compound: "C=CC(=O)Nc1cc(Nc2nccc(-n3nc(C4CC4)c4ccccc43)n2)c(OC)cc1N(C)CCN(C)C [Example 111]"
  readout_unit: "nM"
  IC50: 0.42
- compound: "C=CC(=O)Nc1cc(Nc2nccc(-c3cn(C)c4cc(OC)ccc34)n2)c(OC)cc1N(C)CCNC"
  readout_unit: "nM"
  IC50: 0.44
- compound: "C=CCn1cc(-c2ccnc(Nc3cc(NC(=O)C=C)c(N(C)CCNC)cc3OC)n2)c2ccccc21"
  readout_unit: "nM"
  IC50: 1.51

[P] C=CC(=O)Nc1cc(Nc2nccc(-n3cnc4ccccc43)n2)c(OC)cc1N(C)CCN(C)C
[Q] C=CC(=O)Nc1cc(Nc2nccc(-n3ncc4cc(C#N)ccc43)n2)c(OC)cc1N(C)CCN(C)C
[R] C=CC(=O)Nc1cc(Nc2nccc(-n3ncc4cc(OCC)ccc43)n2)c(OC)cc1N(C)CCN(C)C
Please produce an ascending ranking of these compounds based on IC50. Answer by writing out the labels in the requested order.
R, Q, P

====

system: A431 cells; assay: Inhibition of A431 cell proliferation (CellTiter-Glo); format: cell-based; details: Homo sapiens, A-431, 72 h, read-out: EGFR IC50 (nM) A431
reported_metric: IC50 (nM)

Record excerpt, results attached:
- compound_structure_string: "C=CC(=O)Nc1cc(Nc2nccc(-n3ncc4cc(OCCOC)ccc43)n2)c(OC)cc1N(C)CCN1CCCC1"
  result_number: 325
- compound_structure_string: "C=CC(=O)Nc1cc(Nc2nccc(-c3cn(C)c4cc(F)c(F)cc34)n2)c(OC)cc1N(C)CCN(C)C"
  result_number: 272

[a] C=CC(=O)Nc1cc(Nc2ncc(C(F)(F)F)c(-c3cn(C)c4cc(OC)ccc34)n2)c(OC)cc1N(C)CCN(C)C
[b] C=CC(=O)Nc1cc(Nc2nccc(-c3cn(C4CC4)c4ccccc34)n2)c(OC)cc1N(C)CCN(C)C
Hi! Which is lower in terms of IC50, the first one a or the second one b ? Kindly state the label of the option you pick.
a
(a: 36.5 nM, b: 509 nM)

[1] C=CC(=O)Nc1cc(Nc2nccc(-c3c[nH]c4c(OC)cccc34)n2)c(OC)cc1N(C)CCN(C)C
[2] C=CC(=O)Nc1cc(Nc2nccc(-c3cn(CCO)c4ccccc34)n2)c(OC(F)F)cc1N(C)CCN(C)C
I'm curious whether 1 or 2 has the smaller IC50 number. Which is it? Kindly state the label of the option you pick.
1
(1: 38.8 nM, 2: 208 nM)

[I] C=CC(=O)Nc1cc(Nc2ncc(Cl)c(-c3cn(C)c4ccccc34)n2)c(OC(F)F)cc1N(C)CCN(C)C
[II] C=CC(=O)Nc1cc(Nc2ncc(Cl)c(-n3cnc4cc(OC)ccc43)n2)c(OC)cc1N(C)CCN(C)C
Which shows the larger IC50 value: I or II ? State your choice using its label.
I
(I: 212 nM, II: 71 nM)

====

molecular target: exon 20 T790M mutant-type EGFR enzyme (Homo sapiens, UniProt P00533, T790M); test: Enzymologic experiment of T790M mutant-type EGFR (TR-FRET); format: biochemical; settings: ratio WT IC50 / T790M IC50, enzyme
reported_metric: Selectivity of wild-type/mutant-type

Reference set (5 entries):
- compound: "C=CC(=O)Nc1cc(Nc2nccc(-c3cn(C)c4cc(OC)ccc34)n2)c(OC)cc1N(C)CCNC [Example 127]"
  Selectivity of wild-type/mutant-type: 5.23
- compound: "C=CC(=O)Nc1cc(Nc2nccc(-n3nc(C4CC4)c4ccccc43)n2)c(OC)cc1N(C)CCN(C)C [Example 111]"
  Selectivity of wild-type/mutant-type: 6.60
- compound: "C=CC(=O)Nc1cc(Nc2nccc(-c3cn(C)c4cc(C=C)ccc34)n2)c(OC)cc1N(C)CCN(C)C [Example 96]"
  Selectivity of wild-type/mutant-type: 5.67
- compound: "C=CC(=O)Nc1cc(Nc2nccc(-c3cn(C)c4cc(F)c(F)cc34)n2)c(OC)cc1N(C)CCN(C)C [Example 28]"
  Selectivity of wild-type/mutant-type: 1.0
- compound: "C=CC(=O)Nc1cc(Nc2ncc(Cl)c(-n3ncc4cc(C#N)ccc43)n2)c(OC)cc1N(C)CCN(C)C [Example 51]"
  Selectivity of wild-type/mutant-type: 27.56

[P] C=CC(=O)Nc1cc(Nc2ncc(C(F)(F)F)c(-n3nc(CC)c4cc(C#N)ccc43)n2)c(OC)cc1N(C)CCN(C)C [Example 117]
[Q] C=CC(=O)Nc1cc(Nc2nccc(-n3ncc4ccc(OC)cc43)n2)c(OC)cc1N(C)CCN(C)C [Example 42]
// pick min by Selectivity of wild-type/mutant-type: P , Q Respond using the label that marks the chosen record.
Q

Where do the numbers come from? From patent US10428081B2.
